// provenance: patent US20230049752A1

Reported values of FACS fluorescence for individual entries
subjectOfTest: human Claudin-6 (CLDN6) (human) (UniProt P56747)
experimentSummary: FACS, 1.5 ug Ab, OVCA429 cells (2nd Ab only 885.77)
readoutType: FACS fluorescence

binder="AB9-chim (antibody, V domains shown) VH: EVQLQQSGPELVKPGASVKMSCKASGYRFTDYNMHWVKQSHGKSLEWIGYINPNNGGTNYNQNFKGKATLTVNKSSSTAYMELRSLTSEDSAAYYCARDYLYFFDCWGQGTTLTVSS VL: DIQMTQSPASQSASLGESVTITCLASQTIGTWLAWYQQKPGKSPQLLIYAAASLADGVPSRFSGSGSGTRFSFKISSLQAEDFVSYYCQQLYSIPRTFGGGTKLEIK" result=3570
binder="AB18-4 (antibody, V domains shown) VH: QVQLVQSGAEVKKPGASVKVSCKASGYSFTGYNMNWVRQAPGQGLEWMGNIDPYYGGSTYAQKFQGRVTMTVDTSTSTVYMELSSLRSEDTAVYYCARERSGYVFSAMDYWGQGTLVTVSS VL: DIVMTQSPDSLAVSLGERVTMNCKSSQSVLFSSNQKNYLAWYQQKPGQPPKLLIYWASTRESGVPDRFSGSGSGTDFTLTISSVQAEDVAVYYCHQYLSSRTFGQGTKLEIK" result=3220
